B1: glmS ribozyme (parent)
chain: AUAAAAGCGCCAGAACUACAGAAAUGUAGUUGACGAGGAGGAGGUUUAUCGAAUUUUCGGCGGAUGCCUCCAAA

- Variants of: B1
- Experimental details: KM; higher = weaker cofactor use; RNA array
- Study conditions: with glucosamine-6-phosphate
Mark y for reported KM of 2000 µM or greater; mark n for anything smaller.

Mutation name	Discrete label
G32C U56G	n
U56A C58G	n
U45C C70U	y
A52U A53G	y
U30C G40A	y
U46A G66A	y
U57C C70U	n
C11G	n
U46G C68G	n
A33U G51A	n
